The reported measurements were obtained from ChEMBL document CHEMBL1629465.

zone of inhibition at 5000 µg/mL for assorted molecules
System: Aspergillus fumigatus
Experiment: Antimicrobial activity against Aspergillus fumigatus RCMB 002008 at 5 mg/ml by agar diffusion technique
Type: functional
Conditions: read-out: DIZ
Numbers only; they are read as mm.

Check out these entries, answers already filled in.
>>> measured("OC1COc2ccccc2/C=N\\n2c(nnc2-c2cccnc2)SCCCSc2nnc(-c3cccnc3)n2/N=C\\c2ccccc2OC1")
0
>>> measured("Nn1c(-c2cccnc2)n[nH]c1=S")
0
>>> measured("OC1COc2ccccc2CNn2c(nnc2-c2cccnc2)SCCCSc2nnc(-c3cccnc3)n2NCc2ccccc2OC1")
0
>>> measured("S=c1[nH]nc(-c2cccnc2)n1/N=C\\c1ccccc1OCCCOc1ccccc1/C=N\\n1c(-c2cccnc2)n[nH]c1=S")
0

Look up and state reported zone of inhibition at 5000 µg/mL for S=c1[nH]nc(-c2cccnc2)n1/N=C\c1ccccc1OCCOCCOc1ccccc1/C=N\n1c(-c2cccnc2)n[nH]c1=S
1

Look up and state reported zone of inhibition at 5000 µg/mL for S=c1[nH]nc(-c2cccnc2)n1/N=C\c1ccccc1OCCCCOc1ccccc1/C=N\n1c(-c2cccnc2)n[nH]c1=S
0

Look up and state reported zone of inhibition at 5000 µg/mL for O=C(N[C@H](CO)[C@H](O)c1ccc([N+](=O)[O-])cc1)C(Cl)Cl
10

Look up and state reported zone of inhibition at 5000 µg/mL for Nn1c(SCCCSc2nnc(-c3cccnc3)n2N)nnc1-c1cccnc1
1
